// data source = patent US20230357447A1

molecular target: Anti-CD28 scFv (VH-linker 1-VL) (biotinylated for capture on neutravidin plates); experiment: phage ELISA, scFv captured on plate, competitor soluble CD28;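 also: crude clonal phage supernatants added to wells pre-incubated with soluble CD28 or with blocking buffer only as control, bound phage read out with HRP-linked anti-M13 antibody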
Sequence (scFv, as listed by the source): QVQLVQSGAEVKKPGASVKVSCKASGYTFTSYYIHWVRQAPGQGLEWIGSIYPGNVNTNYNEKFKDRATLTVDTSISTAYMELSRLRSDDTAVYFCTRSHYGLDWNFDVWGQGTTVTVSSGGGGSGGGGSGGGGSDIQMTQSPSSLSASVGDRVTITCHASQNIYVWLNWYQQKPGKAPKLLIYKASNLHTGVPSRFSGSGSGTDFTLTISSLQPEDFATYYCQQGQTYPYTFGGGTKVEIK
recorded_metric: Phage binding ELISA CD28 scFv signal in presence of CD28

{"binder": "MDWCPMNLWSECFN [Phage-173]", "value": 0.124}
{"binder": "MDFCPISLWHECFF [Phage-151]", "value": 0.129}
{"binder": "MSWCPQDLWHVCFN [Phage-167]", "value": 0.112}
{"binder": "MDWCPTYLWFECFN [Phage-132]", "value": 0.224}
{"binder": "MDWCPKHLWNECFN [Phage-174]", "value": 0.105}
{"binder": "MDWCPRAMWDKCFF [Phage-212]", "value": 0.094}
{"binder": "MDWCPPYLWYECFA [Phage-172]", "value": 0.094}
